Experiment: qHTS assay to identify small molecule agonists of the retinoic acid receptor (RAR) signaling pathway (AID 1159553)
Settings: C3RL4 RARE luciferase reporter, agonist, 6 h; series mostly up to 73.3 µM
Excerpt: National Center for Advancing Translational Sciences [NCATS] NIH Chemical Genomics Center [NCGC] U.S. Environmental Protection Agency [EPA] National Institutes of Environmental Health Sciences [NIEHS] National Toxicology Program [NTP] […]
Inconclusive results are not listed. The source made the active and inactive calls. Calls come from the whole dose curve; as a rule, active = well fitted activation curve with a large enough effect in the repeat runs; inconclusive = weak or mixed curves, or effect the other way; inactive = no such curve, though single readings can be large or run the other way.
test_readout: outcome

[
  {
    "molecule": "CC(C)NCC(O)c1cc(O)cc(O)c1 (configuration not stated)",
    "test_value": "inactive"
  },
  {
    "molecule": "O=C(/C=C/c1ccc(O)c(O)c1)O[C@@H]1C[C@](O)(C(=O)O)C[C@@H](O)[C@H]1O",
    "test_value": "inactive"
  },
  {
    "molecule": "C=CC[N+]1([C@H]2C[C@H]3[C@@H]4CC[C@H]5C[C@H](OC(C)=O)[C@@H](N6CCCCC6)C[C@]5(C)[C@H]4CC[C@]3(C)[C@H]2OC(=O)CC)CCCCC1",
    "test_value": "inactive"
  },
  {
    "molecule": "O=[N+]([O-])c1cc[n+]([O-])cc1",
    "test_value": "inactive"
  },
  {
    "molecule": "CCCCCc1ccc(N)cc1",
    "test_value": "inactive"
  },
  {
    "molecule": "CC(C)c1ccc2c(C(C)C)cc(C(C)C)c(S(=O)(=O)O)c2c1",
    "test_value": "inactive"
  },
  {
    "molecule": "CCCCC(CC)(CO)CO",
    "test_value": "inactive"
  },
  {
    "molecule": "O=C(O)COC(=O)Cc1ccccc1Nc1c(Cl)cccc1Cl",
    "test_value": "inactive"
  },
  {
    "molecule": "CN1CCN(C2=Nc3cc(Cl)ccc3Nc3ccccc32)CC1",
    "test_value": "inactive"
  },
  {
    "molecule": "CCCCCCCC/C=C\\CCCCCCCC(N)=O",
    "test_value": "inactive"
  },
  {
    "molecule": "Nc1nc(N)c2nc(CNc3ccc(C(=O)N[C@@H](CCC(=O)O)C(=O)O)cc3)cnc2n1",
    "test_value": "inactive"
  },
  {
    "molecule": "CCOC(=O)C1=NN(c2ccccc2)C(=O)C1",
    "test_value": "inactive"
  },
  {
    "molecule": "CC(Cc1cccc(C(F)(F)F)c1)NCCOC(=O)c1ccccc1 (configuration not stated)",
    "test_value": "inactive"
  },
  {
    "molecule": "CC[C@@H]1C[C@H](N(Cc2cc(C(F)(F)F)cc(C(F)(F)F)c2)C(C)=O)c2cc(C(F)(F)F)ccc2N1C(=O)OC(C)C",
    "test_value": "inactive"
  },
  {
    "molecule": "CCCCCCCCCCCCCCC1CO1 (configuration not stated)",
    "test_value": "inactive"
  },
  {
    "molecule": "CCN1CCC[C@H]1CNC(=O)c1c(OC)ccc(Br)c1OC",
    "test_value": "inactive"
  },
  {
    "molecule": "O=c1[nH]cnc2ccccc12",
    "test_value": "inactive"
  },
  {
    "molecule": "CC(C)(C)C1CCCCC1O (configuration not stated)",
    "test_value": "inactive"
  },
  {
    "molecule": "O=CNc1ccccc1",
    "test_value": "inactive"
  },
  {
    "molecule": "CCCCCCCCCCCCC(=O)O",
    "test_value": "inactive"
  },
  {
    "molecule": "CCCCCC(CO)CCC (configuration not stated)",
    "test_value": "inactive"
  },
  {
    "molecule": "CCOc1nc2cccc(C(=O)O)c2n1Cc1ccc(-c2ccccc2-c2nn[nH]n2)cc1",
    "test_value": "inactive"
  },
  {
    "molecule": "C1=Cc2ccccc2C1",
    "test_value": "inactive"
  },
  {
    "molecule": "C1CCC2OC2C1 (configuration not stated)",
    "test_value": "inactive"
  },
  {
    "molecule": "CC[C@H](C)[C@@H](C(=O)O)n1sc2ccccc2c1=O",
    "test_value": "inactive"
  },
  {
    "molecule": "c1ccc(CNCc2ccccc2)cc1",
    "test_value": "inactive"
  },
  {
    "molecule": "O=C(Nc1ccccc1)OCC(CN1CCCCC1)OC(=O)Nc1ccccc1 (configuration not stated)",
    "test_value": "inactive"
  },
  {
    "molecule": "CN(C)CC/C=C1\\c2ccccc2COc2ccccc21",
    "test_value": "inactive"
  },
  {
    "molecule": "CC(C)(C)c1cc(CO)cc(C(C)(C)C)c1O",
    "test_value": "inactive"
  },
  {
    "molecule": "CCCc1ccccc1",
    "test_value": "inactive"
  },
  {
    "molecule": "CCN(CC)C(C)=O",
    "test_value": "inactive"
  },
  {
    "molecule": "CCCCCOC(=O)COc1cc(N2C(=O)C3=C(CCCC3)C2=O)c(F)cc1Cl",
    "test_value": "inactive"
  },
  {
    "molecule": "CN1CCN(C2=Nc3ccccc3Sc3ccc(Cl)cc32)CC1",
    "test_value": "inactive"
  },
  {
    "molecule": "CC(C)NCC(O)COc1ccc(CC(N)=O)cc1 (configuration not stated)",
    "test_value": "inactive"
  },
  {
    "molecule": "C=Cc1c(C)c2cc3[nH]c(cc4nc(cc5nc(cc1[nH]2)C(C)=C5CCC(=O)O)C(CCC(=O)O)=C4C)c(C)c3C=C",
    "test_value": "inactive"
  },
  {
    "molecule": "C=CC(C)(CCC=C(C)C)OC(=O)c1ccccc1 (configuration not stated)",
    "test_value": "inactive"
  },
  {
    "molecule": "O=C(O)C1CCC(C(=O)O)CC1 (configuration not stated)",
    "test_value": "inactive"
  },
  {
    "molecule": "CCCC(C)C",
    "test_value": "inactive"
  },
  {
    "molecule": "CNCC[C@@H](Oc1ccccc1C)c1ccccc1",
    "test_value": "inactive"
  },
  {
    "molecule": "CC(C)(C)c1cc(CCC(=O)OCC(COC(=O)CCc2cc(C(C)(C)C)c(O)c(C(C)(C)C)c2)(COC(=O)CCc2cc(C(C)(C)C)c(O)c(C(C)(C)C)c2)COC(=O)CCc2cc(C(C)(C)C)c(O)c(C(C)(C)C)c2)cc(C(C)(C)C)c1O",
    "test_value": "inactive"
  },
  {
    "molecule": "Oc1ccc2c(c1)OCO2",
    "test_value": "inactive"
  },
  {
    "molecule": "O=C(O)Cc1cc(I)c(Oc2ccc(O)c(I)c2)c(I)c1",
    "test_value": "inactive"
  },
  {
    "molecule": "C[C@@H](C1=C(CCN(C)C)Cc2ccccc21)c1ccccn1",
    "test_value": "inactive"
  },
  {
    "molecule": "Cc1ccc(C)o1",
    "test_value": "inactive"
  },
  {
    "molecule": "CCCCOC(=O)/C=C\\C(=O)OCCCC",
    "test_value": "inactive"
  },
  {
    "molecule": "CCOC(=O)CC(=O)c1cc(F)c(Cl)nc1Cl",
    "test_value": "inactive"
  },
  {
    "molecule": "O=C(O)c1cn(C2CC2)c2cc(Cl)c(F)cc2c1=O",
    "test_value": "inactive"
  }
]
